biological target: Mannose-6-phosphate isomerase (Homo sapiens) (UniProt P34949); experiment: inhibitors of human PMI, primary screen, biochemical, fluorescence intensity, coupled assay (AID 1209); conditions: purified PMI enzyme, at 20 µM
Sequence (P34949 whole entry, looked up): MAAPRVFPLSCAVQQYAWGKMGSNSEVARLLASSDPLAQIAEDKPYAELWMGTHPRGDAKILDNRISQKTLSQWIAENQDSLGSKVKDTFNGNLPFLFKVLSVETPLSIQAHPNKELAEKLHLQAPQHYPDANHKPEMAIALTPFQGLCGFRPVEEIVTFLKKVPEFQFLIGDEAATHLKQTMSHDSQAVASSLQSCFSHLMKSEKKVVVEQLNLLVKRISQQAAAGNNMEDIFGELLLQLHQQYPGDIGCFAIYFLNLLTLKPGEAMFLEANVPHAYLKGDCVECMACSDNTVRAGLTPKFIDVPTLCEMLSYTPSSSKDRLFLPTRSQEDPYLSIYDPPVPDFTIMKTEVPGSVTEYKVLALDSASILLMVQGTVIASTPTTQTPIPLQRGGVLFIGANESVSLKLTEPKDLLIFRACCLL
The whole screen tested about 190,000 compounds, of which about 810 (0.43%) were called active. No stated cut-off is given here; in the data, active means inhibition above about 50%; inactive means the rest. The entries come from a sample that favours actives as a whole.
Outcome codes: active, inactive

compound	class
COc1cc(NC(c2ccccc2)c2ccccc2)cc(OC)c1OC	active
O=c1[nH]c(=S)[nH]c2sccc12	inactive
CCCCn1c(SCC(=O)NCc2cccs2)nc2c1c(=O)n(C)c(=O)n2C	inactive
O=C(O)CS(=O)(=O)CC(=O)NCc1cccc(C(F)(F)F)c1	inactive
COc1ccc(CC2(C)OC(c3ccc(Cl)cc3)=NN2C(C)=O)cc1 (centres undefined)	inactive
Cc1snc(SCC(=O)c2ccc(F)cc2)c1C#N	inactive
COc1ccccc1OCC(=O)NNC(=O)c1c(-c2ccccc2Cl)noc1C	inactive
C/C(=N\NC(=O)c1ccc([N+](=O)[O-])cc1)c1cccc([N+](=O)[O-])c1	inactive
CCCCCCC1CC(=O)NC(=S)N1 (centres undefined)	inactive
COc1cc(C(c2sc3nc(C)nn3c2O)N2CCc3ccccc3C2)cc(OC)c1OC (centres undefined)	inactive
Cc1cc(C)nc(SCC(=O)c2ccc([N+](=O)[O-])cc2)n1	inactive
CCN1CCN(C(c2cccc(OC)c2)c2sc3nc(C)nn3c2O)CC1 (centres undefined)	inactive
COc1cc(NC(C(=O)Nc2cccc(C(C)=O)c2)c2ccccc2)cc(OC)c1OC (centres undefined)	inactive
O=C1c2ccccc2C(=O)N1CCSc1n[nH]c(=S)s1	inactive
Cc1ccccc1NC(=O)N1CCC(C(=O)c2ccc(F)cc2)CC1	inactive
CCCN1CCCc2cc(CN)ccc21	active
Cc1ncc2c(c1OC(=O)c1ccc([N+](=O)[O-])cc1)COC(C)(C)OC2	inactive
CCc1c(C)nc2ncnn2c1NC1CCCc2ccccc21 (centres undefined)	inactive
COc1cccc(C(c2sc3ncnn3c2O)N2CCc3ccccc3C2)c1 (centres undefined)	inactive
